- targetOrSystem: human calcium-sensing receptor (CaSR) (Homo sapiens, UniProt P41180)
- Sequence (P41180 20-1078): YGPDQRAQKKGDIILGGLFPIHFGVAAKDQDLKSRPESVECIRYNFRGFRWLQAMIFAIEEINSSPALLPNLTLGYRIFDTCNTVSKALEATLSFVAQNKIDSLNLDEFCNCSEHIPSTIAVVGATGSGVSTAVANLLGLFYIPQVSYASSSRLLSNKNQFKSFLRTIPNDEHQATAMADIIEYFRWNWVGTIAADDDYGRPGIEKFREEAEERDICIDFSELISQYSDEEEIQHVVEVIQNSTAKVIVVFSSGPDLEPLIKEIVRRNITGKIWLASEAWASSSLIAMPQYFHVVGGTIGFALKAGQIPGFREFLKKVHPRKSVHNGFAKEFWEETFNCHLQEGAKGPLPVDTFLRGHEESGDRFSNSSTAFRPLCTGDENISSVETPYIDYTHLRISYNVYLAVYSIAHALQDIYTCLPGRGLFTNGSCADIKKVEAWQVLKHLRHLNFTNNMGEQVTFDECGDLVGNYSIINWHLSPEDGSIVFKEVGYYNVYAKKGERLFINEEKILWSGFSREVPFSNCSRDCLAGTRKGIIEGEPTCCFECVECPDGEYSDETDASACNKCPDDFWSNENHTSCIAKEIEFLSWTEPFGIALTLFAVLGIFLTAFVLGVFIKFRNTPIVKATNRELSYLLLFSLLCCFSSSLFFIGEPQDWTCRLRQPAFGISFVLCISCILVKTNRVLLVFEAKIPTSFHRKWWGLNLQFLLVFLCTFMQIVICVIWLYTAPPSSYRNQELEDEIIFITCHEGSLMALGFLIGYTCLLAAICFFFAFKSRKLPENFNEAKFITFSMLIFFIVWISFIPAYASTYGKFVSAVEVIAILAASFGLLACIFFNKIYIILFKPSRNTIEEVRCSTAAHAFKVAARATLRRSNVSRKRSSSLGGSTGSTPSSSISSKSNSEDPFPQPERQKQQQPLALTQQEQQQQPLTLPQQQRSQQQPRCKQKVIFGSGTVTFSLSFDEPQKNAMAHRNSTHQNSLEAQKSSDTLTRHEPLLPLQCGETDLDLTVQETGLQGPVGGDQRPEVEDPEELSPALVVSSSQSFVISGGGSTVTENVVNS
- testName: Inhibitory activity on calcium-sensing receptor (CaSR), intracellular calcium increase as indicator (FLIPR, CHO/hCaSR)
- measurementParameters: CHO cells stably expressing human CaSR; inhibition of intracellular Ca increase induced by extracellular CaCl2

{"columns": ["compound", "IC50"],
 "data": [
  ["Cc1ccc(C[C@@H]2CCCN2C[C@@H](O)CO[C@H](C)c2cc(F)cc(F)c2CCC(=O)O)cc1F [Example 27]", "≤ 3.34 µM"],
  ["Cc1ccc(C[C@@H]2CCCN2C[C@@H](O)CO[C@H](C)c2cccc(F)c2CCC(=O)O)cc1F [Example 6]", "≤ 3.47 µM"],
  ["Cc1ccc(C[C@@H]2CCCN2C[C@@H](O)COC(C)c2c(CCC(=O)O)ccc(F)c2F)cc1F (some centres unmarked) [Example 34]", "≤ 3.34 µM"],
  ["Cc1ccc([C@@H](C)OC[C@H](O)CN2CCC[C@H]2Cc2ccc(C)c(F)c2)c(CCCCC(=O)O)c1 [Example 53]", "≤ 3.29 µM"],
  ["CC[C@@H](OC[C@H](O)CN1CCC[C@H]1Cc1ccc(C)c(Cl)c1)c1ccc(C)cc1CCC(=O)O [Example 136]", "≤ 3.28 µM"],
  ["Cc1ccc([C@@H](C)OC[C@H](O)CN2CCC[C@H]2Cc2ccc(Cl)c(F)c2)c(CCC(=O)O)c1 [Example 128]", "≤ 3.35 µM"],
  ["CC[C@@H](OC[C@H](O)CN1CCC[C@H]1Cc1ccc(Cl)c(Cl)c1)c1cccc(F)c1CCC(=O)O [Example 108]", "≤ 3.12 µM"],
  ["CC[C@@H](OC[C@H](O)CN1CCC[C@H]1Cc1ccc(Cl)c(F)c1)c1cccc(Cl)c1CCC(=O)O [Example 143]", "≤ 3.12 µM"],
  ["Cc1ccc([C@@H](C)OC[C@H](O)CN2CCC[C@H]2Cc2ccc(C)c(F)c2)c(CCC(=O)O)c1 [Example 4]", "≤ 3.5 µM"],
  ["CCc1cc(C[C@@H]2CCCN2C[C@@H](O)CO[C@H](C)c2cccc(C)c2CCC(=O)O)ccc1Cl [Example 163]", "≤ 3.28 µM"],
  ["Cc1ccc(C[C@@H]2CCCN2C[C@@H](O)CO[C@H](C)c2cccc(Cl)c2CCC(=O)O)cc1Cl [Example 150]", "≤ 3.24 µM"],
  ["CCc1cc(C[C@@H]2CCCN2C[C@@H](O)CO[C@H](C)c2cccc(Cl)c2CCC(=O)O)ccc1Cl [Example 152]", "≤ 3.15 µM"],
  ["Cc1ccc(C[C@@H]2CCCN2C[C@@H](O)CO[C@H](C)c2ccccc2/C=C/C(=O)O)cc1F [Example 1]", "≤ 3.62 µM"],
  ["Cc1ccc(C[C@@H]2CCCN2C[C@@H](O)CO[C@H](C)c2cc(F)c(C)cc2CCCCC(=O)O)cc1F [Example 23]", "≤ 3.18 µM"],
  ["CCc1cc(C[C@@H]2CCCN2C[C@@H](O)CO[C@H](C)c2cc(F)ccc2CCC(=O)O)ccc1Cl [Example 99]", "≤ 3.25 µM"],
  ["Cc1ccc(C[C@@H]2CCCN2C[C@@H](O)CO[C@H](C)c2ccc(Cl)cc2CCC(=O)O)cc1Cl [Example 127]", "≤ 3.24 µM"],
  ["CC[C@@H](OC[C@H](O)CN1CCC[C@H]1Cc1ccc(C)c(Cl)c1)c1cc(F)ccc1CCC(=O)O [Example 134]", "≤ 3.25 µM"],
  ["Cc1ccc(C[C@@H]2CCN2C[C@@H](O)CO[C@H](C)c2ccccc2CCC(=O)O)cc1F [Example 14]", "≤ 3.72 µM"],
  ["CC[C@@H](OC[C@H](O)CN1CCC[C@H]1Cc1ccc(C)c(F)c1)c1cc(F)cc(F)c1CCC(=O)O [Example 155]", "≤ 3.24 µM"],
  ["Cc1ccc(C[C@@H]2CCCN2C[C@@H](O)CO[C@H](C)c2cc(F)c(F)cc2CCCCC(=O)O)cc1F [Example 30]", "≤ 3.15 µM"]
]}
